Reference source: PubChem BioAssay AID2060513

Listing of entries alongside the reported viability, T/C.
- Tested on: 299254-011-R-J1-PDC complex spheroids viability
- ASSAY PROTOCOL: Anticancer human tumor 299254-011-R-J1-PDC patient-derived melanoma cell line growth inhibition [GQUAD]
- CONDITION CONTEXT: second compound 10 µM; first compound 1 µM; stronger effect = lower value
Give the value, in units of %, as a plain number.

What does the record list as viability, T/C for CC1COCCN1c1cc(C2(O)CC3CCC(C2)O3)c2cnn(-c3ccn[nH]3)c2n1 (stereo not given) + Cc1[nH]c2ccc(F)cc2c1-c1nc2c3cccnc3c3ncccc3c2[nH]1 ? 15.1

What does the record list as viability, T/C for O=C(NO)c1cnc(N2CCN(S(=O)(=O)c3ccc4ccccc4c3)CC2)nc1 + Cc1[nH]c2ccc(F)cc2c1-c1nc2c3cccnc3c3ncccc3c2[nH]1 ? 75.4

What does the record list as viability, T/C for CC1COCCN1c1cc(-c2ccnn2C)c2ccnc(-c3ccn[nH]3)c2n1 (stereo not given) + Cc1[nH]c2ccc(F)cc2c1-c1nc2c3cccnc3c3ncccc3c2[nH]1 ? 17.4

What does the record list as viability, T/C for CC(=O)O[C@H]1C(=O)[C@@]2(C)[C@H]([C@H](OC(=O)c3ccccc3)[C@]3(O)C[C@H](OC(=O)[C@H](O)[C@@H](NC(=O)c4ccccc4)c4ccccc4)C(C)=C1C3(C)C)[C@]1(OC(C)=O)CO[C@@H]1C[C@@H]2O + CN(C)c1ccc(Nc2c3ccc(NC(=O)CCN4CCCC4)cc3nc3cc(NC(=O)CCN4CCCC4)ccc23)cc1 ? 33

What does the record list as viability, T/C for C=CC(=O)N1CCN(c2nc(=O)n(-c3c(C)ccnc3C(C)C)c3nc(-c4c(O)cccc4F)c(F)cc23)C(C)C1 (stereo not given) + CN(C)c1ccc(Nc2c3ccc(NC(=O)CCN4CCCC4)cc3nc3cc(NC(=O)CCN4CCCC4)ccc23)cc1 ? 68.2

What does the record list as viability, T/C for CC(C)(O)C1CCC(Nc2ccc3ncc(-c4cccc(C(F)(F)F)c4)n3n2)CC1 (stereo not given) + Cc1[nH]c2ccc(F)cc2c1-c1nc2c3cccnc3c3ncccc3c2[nH]1 ? 88

What does the record list as viability, T/C for COc1cc(C2c3cc4c(cc3C(OC3OC5COC(C)OC5C(O)C3O)C3COC(=O)C23)OCO4)cc(OC)c1O (stereo not given) + Cc1cnc(CNC(=O)c2c(=O)c3ccc(N4CCCN(C)CC4)nc3n3c2sc2ccccc23)cn1 ? 69.8

What does the record list as viability, T/C for COc1cccc2c1C(=O)c1c(O)c3c(c(O)c1C2=O)CC(O)(C(=O)CO)CC3OC1CC(N)C(O)C(C)O1 (stereo not given) + Cc1[nH]c2ccc(F)cc2c1-c1nc2c3cccnc3c3ncccc3c2[nH]1 ? 83.3

What does the record list as viability, T/C for O=C(c1cc(Cc2n[nH]c(=O)c3ccccc23)ccc1F)N1CCN(C(=O)C2CC2)CC1 + Cc1[nH]c2ccc(F)cc2c1-c1nc2c3cccnc3c3ncccc3c2[nH]1 ? 104

What does the record list as viability, T/C for Nc1ccn(C2OC(CO)C(O)C2(F)F)c(=O)n1 (stereo not given) + Cc1cnc(CNC(=O)c2c(=O)c3ccc(N4CCCN(C)CC4)nc3n3c2sc2ccccc23)cn1 ? 49.9

###

- System: 299254-011-R-J1-PDC complex spheroids viability
- ASSAY PROTOCOL: Anticancer human tumor 299254-011-R-J1-PDC cell line growth inhibition [GQUAD];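 also: spheroids exposed to the agents for seven days before readout; percent viability relative to DMSO vehicle control wells = 100%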
- CONDITION CONTEXT: second compound 0.316 µM; first compound 3.16 µM; stronger effect = lower value
Listing of entries alongside the reported viability, T/C.
Give the value, in units of %, as a plain number.

Some solved cases for reference:
O=C(c1cc(Cc2n[nH]c(=O)c3ccccc23)ccc1F)N1CCN(C(=O)C2CC2)CC1 + Cc1cnc(CNC(=O)c2c(=O)c3ccc(N4CCCN(C)CC4)nc3n3c2sc2ccccc23)cn1    103
Cc1cccc(N(C)C(=O)C2C(O)CCN2c2nc(C)cc(C(F)(F)F)c2C#N)c1 (stereo not given) + CN(C)c1ccc(Nc2c3ccc(NC(=O)CCN4CCCC4)cc3nc3cc(NC(=O)CCN4CCCC4)ccc23)cc1    95.6
Nc1ccn(C2OC(CO)C(O)C2(F)F)c(=O)n1 (stereo not given) + CN(C)c1ccc(Nc2c3ccc(NC(=O)CCN4CCCC4)cc3nc3cc(NC(=O)CCN4CCCC4)ccc23)cc1    68.3
CC(C)n1c(=O)n(C)c2cnc3cc(F)c(-c4ccc(OCCCN5CCCCC5)nc4)cc3c21 + CN(C)c1ccc(Nc2c3ccc(NC(=O)CCN4CCCC4)cc3nc3cc(NC(=O)CCN4CCCC4)ccc23)cc1    85.7
COc1cccc2c1C(=O)c1c(O)c3c(c(O)c1C2=O)CC(O)(C(=O)CO)CC3OC1CC(N)C(O)C(C)O1 (stereo not given) + CN(C)c1ccc(Nc2c3ccc(NC(=O)CCN4CCCC4)cc3nc3cc(NC(=O)CCN4CCCC4)ccc23)cc1    64.8
O=C(c1cc(Cc2n[nH]c(=O)c3ccccc23)ccc1F)N1CCN(C(=O)C2CC2)CC1 + Cc1[nH]c2ccc(F)cc2c1-c1nc2c3cccnc3c3ncccc3c2[nH]1    103

What does the record list as viability, T/C for C=CC(=O)N1CCN(c2nc(=O)n(-c3c(C)ccnc3C(C)C)c3nc(-c4c(O)cccc4F)c(F)cc23)C(C)C1 (stereo not given) + Cc1cnc(CNC(=O)c2c(=O)c3ccc(N4CCCN(C)CC4)nc3n3c2sc2ccccc23)cn1 ? 65.1

What does the record list as viability, T/C for O=C(c1cc(Cc2n[nH]c(=O)c3ccccc23)ccc1F)N1CCN(C(=O)C2CC2)CC1 + CN(C)c1ccc(Nc2c3ccc(NC(=O)CCN4CCCC4)cc3nc3cc(NC(=O)CCN4CCCC4)ccc23)cc1 ? 96.1

What does the record list as viability, T/C for C=CCn1c(=O)c2cnc(Nc3ccc(N4CCN(C)CC4)cc3)nc2n1-c1cccc(C(C)(C)O)n1 + CN(C)c1ccc(Nc2c3ccc(NC(=O)CCN4CCCC4)cc3nc3cc(NC(=O)CCN4CCCC4)ccc23)cc1 ? 34.9

What does the record list as viability, T/C for CC1COCCN1c1cc(C2(O)CC3CCC(C2)O3)c2cnn(-c3ccn[nH]3)c2n1 (stereo not given) + Cc1cnc(CNC(=O)c2c(=O)c3ccc(N4CCCN(C)CC4)nc3n3c2sc2ccccc23)cn1 ? 11

###

- System: 299254-011-R-J1-PDC complex spheroids viability
- ASSAY PROTOCOL: Anticancer human tumor 299254-011-R-J1-PDC cell line growth inhibition [GQUAD];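 also: spheroids exposed to the agents for seven days before readout; percent viability relative to DMSO vehicle control wells = 100%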
- CONDITION CONTEXT: second compound 0.316 µM; first compound 1 µM; stronger effect = lower value
READOUT LABEL: viability, T/C

Some solved cases for reference:
CC1COCCN1c1cc(C2(O)CC3CCC(C2)O3)c2cnn(-c3ccn[nH]3)c2n1 (stereo not given) + Cc1cnc(CNC(=O)c2c(=O)c3ccc(N4CCCN(C)CC4)nc3n3c2sc2ccccc23)cn1    15.9%
C=CCn1c(=O)c2cnc(Nc3ccc(N4CCN(C)CC4)cc3)nc2n1-c1cccc(C(C)(C)O)n1 + Cc1cnc(CNC(=O)c2c(=O)c3ccc(N4CCCN(C)CC4)nc3n3c2sc2ccccc23)cn1    55%
O=C(NO)c1cnc(N2CCN(S(=O)(=O)c3ccc4ccccc4c3)CC2)nc1 + Cc1[nH]c2ccc(F)cc2c1-c1nc2c3cccnc3c3ncccc3c2[nH]1    50.3%
Cc1cccc(N(C)C(=O)C2C(O)CCN2c2nc(C)cc(C(F)(F)F)c2C#N)c1 (stereo not given) + Cc1[nH]c2ccc(F)cc2c1-c1nc2c3cccnc3c3ncccc3c2[nH]1    88.5%

What does the record list as viability, T/C for COc1ccc([C@@H](O)c2cc(-c3ncnc4cc(N5CCOCC5)ccc34)c(F)cc2Cl)nn1 + Cc1cnc(CNC(=O)c2c(=O)c3ccc(N4CCCN(C)CC4)nc3n3c2sc2ccccc23)cn1 ? 68.1%

What does the record list as viability, T/C for COc1cc(C2c3cc4c(cc3C(OC3OC5COC(C)OC5C(O)C3O)C3COC(=O)C23)OCO4)cc(OC)c1O (stereo not given) + Cc1[nH]c2ccc(F)cc2c1-c1nc2c3cccnc3c3ncccc3c2[nH]1 ? 86.9%

###

- Tested on: 299254-011-R-J1-PDC complex spheroids viability
- ASSAY PROTOCOL: Anticancer human tumor 299254-011-R-J1-PDC cell line growth inhibition [GQUAD]; active means viability on the fitted dose curve at most 10% of control; inactive means the rest;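 also: spheroids exposed to the agents for seven days before readout; percent viability relative to DMSO vehicle control wells = 100%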
- CONDITION CONTEXT: second compound 10 µM; first compound 10 µM
Use one of these outcomes when replying: Yes (active), No (inactive)

Example results:
CC1COCCN1c1cc(C2(S(C)(=N)=O)CC2)nc(-c2ccnc3[nH]ccc23)n1 (stereo unspecified) + Cc1cnc(CNC(=O)c2c(=O)c3ccc(N4CCCN(C)CC4)nc3n3c2sc2ccccc23)cn1    No
CC(C)(O)C1CCC(Nc2ccc3ncc(-c4cccc(C(F)(F)F)c4)n3n2)CC1 (stereo unspecified) + Cc1cnc(CNC(=O)c2c(=O)c3ccc(N4CCCN(C)CC4)nc3n3c2sc2ccccc23)cn1    Yes
C=CCn1c(=O)c2cnc(Nc3ccc(N4CCN(C)CC4)cc3)nc2n1-c1cccc(C(C)(C)O)n1 + Cc1cnc(CNC(=O)c2c(=O)c3ccc(N4CCCN(C)CC4)nc3n3c2sc2ccccc23)cn1    Yes
COc1ncnc(C2CC2)c1-c1ncc2cnn(Cc3ccc(-c4nc(C(F)(F)F)cn4C(C)C)cc3)c2n1 + CN(C)c1ccc(Nc2c3ccc(NC(=O)CCN4CCCC4)cc3nc3cc(NC(=O)CCN4CCCC4)ccc23)cc1    No
CCCS(=O)(=O)Nc1ccc(F)c(C(=O)c2c[nH]c3ncc(-c4ccc(Cl)cc4)cc23)c1F + Cc1cnc(CNC(=O)c2c(=O)c3ccc(N4CCCN(C)CC4)nc3n3c2sc2ccccc23)cn1    Yes

Given O=C(c1cc(Cc2n[nH]c(=O)c3ccccc23)ccc1F)N1CCN(C(=O)C2CC2)CC1 + Cc1[nH]c2ccc(F)cc2c1-c1nc2c3cccnc3c3ncccc3c2[nH]1 , state the outcome it received in this test. No

Given Cc1cccc(N(C)C(=O)C2C(O)CCN2c2nc(C)cc(C(F)(F)F)c2C#N)c1 (stereo unspecified) + Cc1[nH]c2ccc(F)cc2c1-c1nc2c3cccnc3c3ncccc3c2[nH]1 , state the outcome it received in this test. No

Given Nc1ccn(C2OC(CO)C(O)C2(F)F)c(=O)n1 (stereo unspecified) + CN(C)c1ccc(Nc2c3ccc(NC(=O)CCN4CCCC4)cc3nc3cc(NC(=O)CCN4CCCC4)ccc23)cc1 , state the outcome it received in this test. No

Given O=c1[nH]cc(F)c(=O)[nH]1 + Cc1[nH]c2ccc(F)cc2c1-c1nc2c3cccnc3c3ncccc3c2[nH]1 , state the outcome it received in this test. No

Given CC(C)(O)C1CCC(Nc2ccc3ncc(-c4cccc(C(F)(F)F)c4)n3n2)CC1 (stereo unspecified) + CN(C)c1ccc(Nc2c3ccc(NC(=O)CCN4CCCC4)cc3nc3cc(NC(=O)CCN4CCCC4)ccc23)cc1 , state the outcome it received in this test. No

Given C=CCn1c(=O)c2cnc(Nc3ccc(N4CCN(C)CC4)cc3)nc2n1-c1cccc(C(C)(C)O)n1 + CN(C)c1ccc(Nc2c3ccc(NC(=O)CCN4CCCC4)cc3nc3cc(NC(=O)CCN4CCCC4)ccc23)cc1 , state the outcome it received in this test. No

Given CC1COCCN1c1cc(-c2ccnn2C)c2ccnc(-c3ccn[nH]3)c2n1 (stereo unspecified) + CN(C)c1ccc(Nc2c3ccc(NC(=O)CCN4CCCC4)cc3nc3cc(NC(=O)CCN4CCCC4)ccc23)cc1 , state the outcome it received in this test. No

Given CCCS(=O)(=O)Nc1ccc(F)c(C(=O)c2c[nH]c3ncc(-c4ccc(Cl)cc4)cc23)c1F + Cc1[nH]c2ccc(F)cc2c1-c1nc2c3cccnc3c3ncccc3c2[nH]1 , state the outcome it received in this test. No

Given CC(C)n1c(=O)n(C)c2cnc3cc(F)c(-c4ccc(OCCCN5CCCCC5)nc4)cc3c21 + CN(C)c1ccc(Nc2c3ccc(NC(=O)CCN4CCCC4)cc3nc3cc(NC(=O)CCN4CCCC4)ccc23)cc1 , state the outcome it received in this test. No

Given O=C(NO)c1cnc(N2CCN(S(=O)(=O)c3ccc4ccccc4c3)CC2)nc1 + Cc1cnc(CNC(=O)c2c(=O)c3ccc(N4CCCN(C)CC4)nc3n3c2sc2ccccc23)cn1 , state the outcome it received in this test. Yes

Given O=C(NO)c1cnc(N2CCN(S(=O)(=O)c3ccc4ccccc4c3)CC2)nc1 + CN(C)c1ccc(Nc2c3ccc(NC(=O)CCN4CCCC4)cc3nc3cc(NC(=O)CCN4CCCC4)ccc23)cc1 , state the outcome it received in this test. Yes

Given COc1ncnc(C2CC2)c1-c1ncc2cnn(Cc3ccc(-c4nc(C(F)(F)F)cn4C(C)C)cc3)c2n1 + Cc1[nH]c2ccc(F)cc2c1-c1nc2c3cccnc3c3ncccc3c2[nH]1 , state the outcome it received in this test. No

Given CC1COCCN1c1cc(-c2ccnn2C)c2ccnc(-c3ccn[nH]3)c2n1 (stereo unspecified) + Cc1cnc(CNC(=O)c2c(=O)c3ccc(N4CCCN(C)CC4)nc3n3c2sc2ccccc23)cn1 , state the outcome it received in this test. Yes

Given C=CCn1c(=O)c2cnc(Nc3ccc(N4CCN(C)CC4)cc3)nc2n1-c1cccc(C(C)(C)O)n1 + Cc1[nH]c2ccc(F)cc2c1-c1nc2c3cccnc3c3ncccc3c2[nH]1 , state the outcome it received in this test. No

Given C#Cc1c(F)ccc2cc(O)cc(-c3ncc4c(N5CC6CCC(C5)N6)nc(OCC56CCCN5CC(F)C6)nc4c3F)c12 (stereo unspecified) + CN(C)c1ccc(Nc2c3ccc(NC(=O)CCN4CCCC4)cc3nc3cc(NC(=O)CCN4CCCC4)ccc23)cc1 , state the outcome it received in this test. No

Given CC1COCCN1c1cc(C2(O)CC3CCC(C2)O3)c2cnn(-c3ccn[nH]3)c2n1 (stereo unspecified) + Cc1[nH]c2ccc(F)cc2c1-c1nc2c3cccnc3c3ncccc3c2[nH]1 , state the outcome it received in this test. Yes
